# Organism: Rattus norvegicus
# test-name: DrugMatrix - Regimen: Daily Repeat
# Assay type: toxicity, organism-based, Sprague-Dawley
# Parameters: regimen Daily Repeat, gender Male, age 6-8 weeks
# assay-setup: in vivo, po, 0 mg/kg, 72 h, tissue Blood, route oral GAVAGE, dose level Control, time 3 day, vehicle .5 % CMC
quantity-measured: EOSINOPHIL (%)
One number for each entry, in %.

The cases that follow already have their EOSINOPHIL on record.
- molecule: "CCC[C@@H]1C[C@@H](C(=O)N[C@@H]([C@H]2O[C@H](SC)[C@H](O)[C@@H](O)[C@H]2O)[C@@H](C)O)N(C)C1"
  EOSINOPHIL (%): 0
- molecule: "CCc1ccc(C(=O)C(C)CN2CCCCC2)cc1 (centres undefined)"
  EOSINOPHIL (%): 1.67
- molecule: "NCC(=O)O"
  EOSINOPHIL (%): 0

# batch size: 4; output EOSINOPHIL per entry
1. CC(C)[C@H](N)C(=O)OCCOCn1cnc2c(=O)[nH]c(N)nc21
2. O=C1CCc2cc(OCCCCc3nnnn3C3CCCCC3)ccc2N1
3. O=c1[nH]cc(F)c(=O)[nH]1
4. CC1(C)[C@H]2CC[C@]1(C)C(=O)C2 [(-)-CAMPHOR]

[1, 0.46, 1, 1.33]

# batch size: 5; output EOSINOPHIL per entry
1. CCc1cccc2c3c([nH]c12)C(CC)(CC(=O)O)OCC3 (centres undefined)
2. Brc1ccccc1
3. C[C@]12CCC(=O)C=C1CC[C@@H]1[C@@H]2C(=O)C[C@@]2(C)[C@H]1CC[C@]2(O)C(=O)CO
4. CCOC(=O)OC(C)OC1=C(C(=O)Nc2ccccn2)N(C)S(=O)(=O)c2ccccc21 (centres undefined)
5. CN1C(C(=O)Nc2ccccn2)=C(O)c2ccccc2S1(=O)=O

1: 0.98; 2: 0.17; 3: 0.98; 4: 0.17; 5: 0.33

# batch size: 7; output EOSINOPHIL per entry
1. COc1c(C)c2c(c(O)c1C/C=C(\C)CCC(=O)OCCN1CCOCC1)C(=O)OC2 [MYCOPHENOLATE MOFETIL]
2. CC[C@H]1OC(=O)[C@H](C)[C@@H](O[C@H]2C[C@@](C)(OC)[C@@H](O)[C@H](C)O2)[C@H](C)[C@@H](O[C@@H]2O[C@H](C)C[C@H](N(C)C)[C@H]2O)[C@](C)(O)C[C@@H](C)/C(=N\OCOCCOC)[C@H](C)[C@@H](O)[C@]1(C)O
3. CN1CCC[C@@H]1CCO[C@](C)(c1ccccc1)c1ccc(Cl)cc1
4. COC(=O)c1ccc(O)cc1
5. Cc1c(-c2ccccc2)oc2c(C(=O)OCCN3CCCCC3)cccc2c1=O [FLAVOXATE]
6. C=C1CC[C@H](O)C/C1=C/C=C1\CCC[C@]2(C)[C@@H]([C@H](C)/C=C/[C@H](C)C(C)C)CC[C@@H]12
7. CC(/C=C1\SC(=S)N(CC(=O)O)C1=O)=C\c1ccccc1

0
0.98
0
0
0.17
0.17
0

----------
# Organism: Rattus norvegicus
# test-name: DrugMatrix - Regimen: Daily Repeat
# Format: toxicity, organism-based, Sprague-Dawley
# Set-up: regimen Daily Repeat, gender Male, age 6-8 weeks
# assay-setup: in vivo, po, 0 mg/kg, 72 h, tissue Plasma, route oral GAVAGE, dose level Control, time 3 day, vehicle .5 % CMC
For each entry below, report its BLOOD UREA NITROGEN value.
Give bare numbers, in mg/dL.

The cases that follow already have their BLOOD UREA NITROGEN on record.
- compound: "CC1(C)[C@H]2CC[C@]1(C)C(=O)C2 [(-)-CAMPHOR]"
  unit-string: "mg/dL"
  BLOOD UREA NITROGEN: 17.67
- compound: "Cc1c(-c2ccccc2)oc2c(C(=O)OCCN3CCCCC3)cccc2c1=O [FLAVOXATE]"
  unit-string: "mg/dL"
  BLOOD UREA NITROGEN: 15.33
- compound: "CC(C)[C@H](N)C(=O)OCCOCn1cnc2c(=O)[nH]c(N)nc21"
  unit-string: "mg/dL"
  BLOOD UREA NITROGEN: 17.33
- compound: "CN1CCC[C@@H]1CCO[C@](C)(c1ccccc1)c1ccc(Cl)cc1"
  unit-string: "mg/dL"
  BLOOD UREA NITROGEN: 17.33

# batch size: 7; output BLOOD UREA NITROGEN per entry
1. CC[C@H]1OC(=O)[C@H](C)[C@@H](O[C@H]2C[C@@](C)(OC)[C@@H](O)[C@H](C)O2)[C@H](C)[C@@H](O[C@@H]2O[C@H](C)C[C@H](N(C)C)[C@H]2O)[C@](C)(O)C[C@@H](C)/C(=N\OCOCCOC)[C@H](C)[C@@H](O)[C@]1(C)O
2. CC(/C=C1\SC(=S)N(CC(=O)O)C1=O)=C\c1ccccc1
3. CCC[C@@H]1C[C@@H](C(=O)N[C@@H]([C@H]2O[C@H](SC)[C@H](O)[C@@H](O)[C@H]2O)[C@@H](C)O)N(C)C1
4. NCC(=O)O
5. C=C1CC[C@H](O)C/C1=C/C=C1\CCC[C@]2(C)[C@@H]([C@H](C)/C=C/[C@H](C)C(C)C)CC[C@@H]12
6. CN1C(C(=O)Nc2ccccn2)=C(O)c2ccccc2S1(=O)=O
7. Brc1ccccc1

1. 15.17
2. 17.33
3. 15
4. 16.83
5. 13.33
6. 15.67
7. 14.67
